Experiment: Cell Viability - LYMP2-024 (AID 988);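 further: cells exposed to compound for 24 hr at 37 °C; nearly all actives have a fitted effect of over 60% in size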
Conditions: LYMP2-024 lymphoblastoid cell viability; series mostly up to 92.2 µM
Excerpt: NIH Chemical Genomics Center [NCGC] NIH Molecular Libraries Screening Centers Network [MLSCN] National Institutes of Environmental Health Sciences [NIEHS] National Toxicology Program [NTP] We have developed a 1536-well cell-based assay for quantitative high throughput screening (qHTS) against a number of cell lines to determine in vitro cytotoxicity of small molecules. […] 8. Detection; Luminescence; Viewlux plate reader […]
Inconclusive results are not listed. The source made the active and inactive calls. The call rests on the fitted dose curve; in most records, active means well fitted cell-killing curve with a large enough effect; inconclusive means small, poorly fitted or top-dose-only effect; inactive means flat fitted curve, though single readings scatter.
Hi there, use one of these labels in your reply, thanks! active, inactive

CC(C)(O)C(=O)Nc1ccc([N+](=O)[O-])c(C(F)(F)F)c1; inactive
COC(C)(C)CCCC(C)C/C=C/C(C)=C/C(=O)OC(C)C (centres undefined); inactive
CCCCC(CC)COC(=O)c1ccccc1C(=O)OCC(CC)CCCC (centres undefined); inactive
C=CC(=O)NCNC(=O)C=C; inactive
C1CCC(NC2CCCCC2)CC1; inactive
CCOP(=O)(NC(C)C)Oc1ccc(SC)c(C)c1 (centres undefined); inactive
CN(C)[C@@H]1C(=O)C(C(N)=O)=C(O)[C@@]2(O)C(=O)C3=C(O)c4c(O)cccc4[C@@](C)(O)[C@H]3[C@H](O)[C@@H]12; inactive
OCCCBr; inactive
CN(C)NC(=O)CCC(=O)O; inactive
Nc1ccc(Cl)cc1; inactive

GET /call?item= Cc1cc(O)ccc1Cl returns the recorded outcome of this test.
inactive
